property_label: melting point

C[C@@H](c1ccccc1)N1[C@H]2CC[C@H](C2)[C@H]1CNS(=O)(=O)c1ccc(-c2ccccc2F)cc1 [Compound 11j] ... 95 °C

## Input Which value of melting point has been reported for C[C@@H](c1ccccc1)N1[C@H]2CC[C@H](C2)[C@H]1CNS(=O)(=O)c1ccc(F)cc1 [Compound 11d] in the records?
## Output 105 to 107 °C

## Input Find the recorded melting point belonging to C[C@@H](c1ccccc1)N1[C@H]2CC[C@H](C2)[C@@H]1CNS(=O)(=O)c1ccccc1 [Compound 11b] and report it.
## Output 107 to 109 °C

## Input Would you kindly share the measured melting point for C[C@@H](c1ccccc1)N1C[C@@H](CNS(=O)(=O)c2ccc(-c3ccc(F)cc3)cc2)[C@@H]2CC[C@H]1C2 [Compound 12i] ?
## Output 128 to 129 °C

## Input Can you share its melting point? I mean this molecule: O=S(=O)(NC[C@H]1N[C@H]2CC[C@@H]1C2)c1ccc(-c2ccc(F)cc2)cc1 [Compound 10i]
## Output 155 °C

## Input Which measured melting point value corresponds to Cc1ccc(S(=O)(=O)NC[C@H]2[C@@H]3CC[C@@H](C3)N2[C@@H](C)c2ccccc2)cc1 [Compound 11c] ?
## Output 124 to 127 °C

## Input May I ask what melting point has been recorded for C[C@@H](c1ccccc1)N1C[C@@H](NS(=O)(=O)c2ccc(-c3ccc(F)cc3)cc2)[C@@H]2CC[C@H]1C2 ?
## Output 139 to 140 °C

## Input Reported melting point for C[C@@H](c1ccccc1)N1C(CN(C[C@H]2[C@@H]3CC[C@@H](C3)N2[C@@H](C)c2ccccc2)S(=O)(=O)c2ccc(-c3ccc(F)cc3)cc2)[C@@H]2CC[C@H]1C2 (some centres unmarked) [Compound 13i] : what is it?
## Output 96 to 98 °C

Hey, just so you know, these numbers are from paper PMC7664408.
